Data origin: the supplement of paper PMC5998384

Test system: HeLa Kyoto;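 also: synchronized HeLa Kyoto cells (double thymidine block for G1/S, nocodazole release for mitosis), protein amounts in NP-40 versus SDS lysates quantified by mass spectrometry, three biological replicates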
Test: solubility change mitosis vs G1/S (difference of NP-40 vs SDS log2 ratios) (log2 ratio difference); higher = more soluble in mitosis
Reported Property: solubility change mitosis (log2)

Suppose we examine the sequence MAGYLKLVCVSFQRQGFHTVGSRCKNRTGAEHLWLTRHLRDPFVKAAKVESYRCRSAFKLLEVNERHQILRPGLRVLDCGAAPGAWSQVAVQKVNAAGTDPSSPVGFVLGVDLLHIFPLEGATFLCPADVTDPRTSQRILEVLPGRRADVILSDMAPNATGFRDLDHDRLISLCLTLLSVTPDILQPGGTFLCKTWAGSQSRRLQRRLTEEFQNVRIIKPEASRKESSEVYFLATQYHGRKGTVKQ [FTSJ2] ; what solubility change mitosis (log2) value has been reported? 0.0979

Suppose we examine the sequence MAPWTLWRCCQRVVGWVPVLFITFVVVWSYYAYVVELCVFTIFGNEENGKTVVYLVAFHLFFVMFVWSYWMTIFTSPASPSKEFYLSNSEKERYEKEFSQERQQEILRRAARALPIYTTSASKTIRYCEKCQLIKPDRAHHCSACDSCILKMDHHCPWVNNCVGFSNYKFFLLFLLYSLLYCLFVAATVLEYFIKFWTNELTDTRAKFHVLFLFFVSAMFFISVLSLFSYHCWLVGKNRTTIESFRAPTFSYGPDGNGFSLGCSKNWRQVFGDEKKYWLLPIFSSLGDGCSFPTRLVGMDPEQASVTNQNEYARSSGSNQPFPIKPLSESKNRLLDSESQWLENGAEEGIVKSGTNNHVTVAIEN [ZDHHC20] ; what solubility change mitosis (log2) value has been reported? -0.0867

Suppose we examine the sequence MASGTTTTAVKIGIIGGTGLDDPEILEGRTEKYVDTPFGKPSDALILGKIKNVDCVLLARHGRQHTIMPSKVNYQANIWALKEEGCTHVIVTTACGSLREEIQPGDIVIIDQFIDRTTMRPQSFYDGSHSCARGVCHIPMAEPFCPKTREVLIETAKKLGLRCHSKGTMVTIEGPRFSSRAESFMFRTWGADVINMTTVPEVVLAKEAGICYASIAMATDYDCWKEHEEAVSVDRVLKTLKENANKAKSLLLTTIPQIGSTEWSETLHNLKNMAQFSVLLPRH [MTAP] ; what solubility change mitosis (log2) value has been reported? -0.0344
